Assay: Curing experiments: belt cure under LED lamp at 395 nm
Conditions: same active phosphine oxide concentration (given Wt %) in 7:3 w/w bisphenol A ethoxylate diacrylate/tripropylene glycol diacrylate; LED 395 nm; 50 μm film
Recorded measurements of Cure speed (m/min) Depth cure, one per entry
measured.endpoint: Cure speed (m/min) Depth cure

[[record]]
compound = "CCCCNC(=O)C(CC(=O)c1c(C)cc(C)c(C(=O)P(=O)(c2ccccc2)c2ccccc2)c1C)N1CCN(C)CC1 (single isomer, unassigned) [Photoinitiator 4]"
test_result = 5.0

[[record]]
compound = "CCCCNC(=O)/C=C\\C(=O)c1c(C)cc(C)c(C(=O)P(=O)(c2ccccc2)c2ccccc2)c1C [Precursor 3]"
test_result = 1.8

[[record]]
compound = "Cc1cc(C)c(C(=O)P(=O)(c2ccccc2)c2ccccc2)c(C)c1 [SpeedCure TPO]"
test_result = 5.6

[[record]]
compound = "CCCCNC(=O)C(CC(=O)c1c(C)cc(C)c(C(=O)P(=O)(c2ccccc2)c2ccccc2)c1C)N1CCOCC1 (single isomer, unassigned) [Photoinitiator 3]"
test_result = 5.0

